# credit: paper PMC4008261

target: Flt3 (Homo sapiens); assay: Kinase inhibition test; format: biochemical
Sequence (P36888 27-993, species assumed): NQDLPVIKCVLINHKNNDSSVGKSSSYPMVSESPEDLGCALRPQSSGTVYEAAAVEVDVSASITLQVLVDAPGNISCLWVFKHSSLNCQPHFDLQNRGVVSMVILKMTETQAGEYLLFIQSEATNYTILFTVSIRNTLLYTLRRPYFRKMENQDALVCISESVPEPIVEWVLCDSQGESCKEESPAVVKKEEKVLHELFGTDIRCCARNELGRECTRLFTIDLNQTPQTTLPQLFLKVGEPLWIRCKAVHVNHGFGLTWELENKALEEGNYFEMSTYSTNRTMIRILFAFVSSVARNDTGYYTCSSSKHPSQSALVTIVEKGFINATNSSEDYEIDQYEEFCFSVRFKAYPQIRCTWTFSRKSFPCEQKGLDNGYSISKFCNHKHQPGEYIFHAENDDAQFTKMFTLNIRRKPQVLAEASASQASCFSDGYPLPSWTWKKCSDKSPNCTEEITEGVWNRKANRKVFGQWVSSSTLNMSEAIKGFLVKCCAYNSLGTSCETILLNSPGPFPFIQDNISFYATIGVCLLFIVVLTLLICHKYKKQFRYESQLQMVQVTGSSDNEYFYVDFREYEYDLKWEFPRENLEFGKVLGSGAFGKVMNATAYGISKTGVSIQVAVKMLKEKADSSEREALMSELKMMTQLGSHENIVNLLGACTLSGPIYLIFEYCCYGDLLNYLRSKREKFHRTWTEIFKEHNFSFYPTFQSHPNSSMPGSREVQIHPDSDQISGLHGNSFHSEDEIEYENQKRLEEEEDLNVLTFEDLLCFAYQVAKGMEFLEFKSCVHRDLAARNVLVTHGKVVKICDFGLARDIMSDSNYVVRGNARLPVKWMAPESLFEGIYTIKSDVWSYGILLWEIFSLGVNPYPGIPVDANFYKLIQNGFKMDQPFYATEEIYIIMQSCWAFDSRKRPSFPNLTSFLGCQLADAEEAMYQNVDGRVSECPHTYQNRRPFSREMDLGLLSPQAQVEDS
measureName: IC50

Please report the recorded IC50 for CC(=O)c1cc2c(=O)c3c(C(=O)O)c(O)c(O)cc3oc2c(C(C)=O)c1-c1coc2cc(O)c(O)c(C(=O)O)c2c1=O [SM-345431, Vinaxanthone] .
> 10 µM

* * *

Target: EphB4 (Homo sapiens, UniProt P54760)
Sequence (P54760 16-987): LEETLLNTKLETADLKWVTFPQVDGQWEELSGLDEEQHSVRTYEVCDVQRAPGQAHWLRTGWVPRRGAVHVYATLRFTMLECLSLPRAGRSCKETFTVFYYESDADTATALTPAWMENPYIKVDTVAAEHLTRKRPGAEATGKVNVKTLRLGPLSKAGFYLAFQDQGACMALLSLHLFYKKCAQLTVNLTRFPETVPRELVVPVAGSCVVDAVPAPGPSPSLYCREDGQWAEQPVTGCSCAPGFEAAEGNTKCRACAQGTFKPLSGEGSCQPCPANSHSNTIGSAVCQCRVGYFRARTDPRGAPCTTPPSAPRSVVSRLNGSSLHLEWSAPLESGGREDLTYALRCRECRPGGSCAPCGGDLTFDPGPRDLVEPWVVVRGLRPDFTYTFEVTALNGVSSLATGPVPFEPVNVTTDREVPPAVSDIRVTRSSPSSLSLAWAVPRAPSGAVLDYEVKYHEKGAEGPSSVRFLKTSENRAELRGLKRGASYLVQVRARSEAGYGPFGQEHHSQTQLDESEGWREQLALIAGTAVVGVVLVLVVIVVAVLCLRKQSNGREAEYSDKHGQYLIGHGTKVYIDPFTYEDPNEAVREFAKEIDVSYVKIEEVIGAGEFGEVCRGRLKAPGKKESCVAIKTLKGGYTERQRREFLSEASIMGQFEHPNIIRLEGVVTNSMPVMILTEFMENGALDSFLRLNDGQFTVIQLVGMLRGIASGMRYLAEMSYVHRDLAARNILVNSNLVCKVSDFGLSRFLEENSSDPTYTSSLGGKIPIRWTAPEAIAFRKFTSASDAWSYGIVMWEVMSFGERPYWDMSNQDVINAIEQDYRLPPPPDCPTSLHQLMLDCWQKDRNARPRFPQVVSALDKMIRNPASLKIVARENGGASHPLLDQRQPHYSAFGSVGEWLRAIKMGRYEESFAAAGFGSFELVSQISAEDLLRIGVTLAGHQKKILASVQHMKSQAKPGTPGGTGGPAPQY
measureName: IC50

Please report the recorded IC50 for `CC(=O)c1cc2c(=O)c3c(C(=O)O)c(O)c(O)cc3oc2c(C(C)=O)c1-c1coc2cc(O)c(O)c(C(=O)O)c2c1=O` .
> 10 µM

* * *

molecular target: FGFR4 (Homo sapiens, UniProt P22455)
Sequence (P22455 22-802, species assumed): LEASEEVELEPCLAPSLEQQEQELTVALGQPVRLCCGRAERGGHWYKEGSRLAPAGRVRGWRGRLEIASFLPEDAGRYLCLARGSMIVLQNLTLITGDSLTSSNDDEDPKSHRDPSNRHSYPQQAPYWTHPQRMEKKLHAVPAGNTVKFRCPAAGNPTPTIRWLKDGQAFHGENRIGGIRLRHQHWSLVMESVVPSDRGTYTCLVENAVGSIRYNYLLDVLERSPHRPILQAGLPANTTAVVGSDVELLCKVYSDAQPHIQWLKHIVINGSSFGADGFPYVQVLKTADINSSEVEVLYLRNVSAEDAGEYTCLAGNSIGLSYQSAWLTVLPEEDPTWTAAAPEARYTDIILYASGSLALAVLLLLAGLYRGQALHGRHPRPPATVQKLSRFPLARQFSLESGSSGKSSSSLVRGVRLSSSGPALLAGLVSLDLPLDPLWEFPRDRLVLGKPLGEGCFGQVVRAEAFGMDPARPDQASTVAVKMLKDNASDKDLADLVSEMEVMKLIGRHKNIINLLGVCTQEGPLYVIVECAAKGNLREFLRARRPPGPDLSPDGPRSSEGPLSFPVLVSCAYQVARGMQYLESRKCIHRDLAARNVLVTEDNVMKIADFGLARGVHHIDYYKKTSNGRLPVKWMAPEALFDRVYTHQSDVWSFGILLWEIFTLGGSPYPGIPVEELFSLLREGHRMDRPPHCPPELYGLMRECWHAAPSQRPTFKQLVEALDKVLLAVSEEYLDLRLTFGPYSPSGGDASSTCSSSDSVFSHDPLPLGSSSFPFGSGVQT
measureName: IC50 (nM)
Write down the numeric answer in nM and omit the unit.

Item `CC(=O)c1cc2c(=O)c3c(C(=O)O)c(O)c(O)cc3oc2c(C(C)=O)c1-c1coc2cc(O)c(O)c(C(=O)O)c2c1=O` with FGFR4 (Homo sapiens, UniProt P22455) - IC50?
640

* * *

target: Matrix Metalloproteinase-1 (MMP-1) (Homo sapiens)
Sequence (P03956 100-469, species assumed): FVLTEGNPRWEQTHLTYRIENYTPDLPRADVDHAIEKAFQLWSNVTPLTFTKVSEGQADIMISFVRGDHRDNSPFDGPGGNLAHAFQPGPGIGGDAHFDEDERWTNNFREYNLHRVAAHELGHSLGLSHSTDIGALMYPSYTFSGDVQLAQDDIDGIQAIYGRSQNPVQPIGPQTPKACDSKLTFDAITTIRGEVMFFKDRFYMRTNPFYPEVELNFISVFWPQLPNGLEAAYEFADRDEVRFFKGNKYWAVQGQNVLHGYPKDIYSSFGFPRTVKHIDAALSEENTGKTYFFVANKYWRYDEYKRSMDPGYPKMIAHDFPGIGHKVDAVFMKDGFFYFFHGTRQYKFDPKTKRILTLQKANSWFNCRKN
measureName: IC50

Item `CC(=O)c1cc2c(=O)c3c(C(=O)O)c(O)c(O)cc3oc2c(C(C)=O)c1-c1coc2cc(O)c(O)c(C(=O)O)c2c1=O` with Matrix Metalloproteinase-1 (MMP-1) (Homo sapiens) - IC50?
> 10 µM

* * *

Molecular target: JAK3 (Homo sapiens, UniProt P52333)
Sequence (P52333 1-1124): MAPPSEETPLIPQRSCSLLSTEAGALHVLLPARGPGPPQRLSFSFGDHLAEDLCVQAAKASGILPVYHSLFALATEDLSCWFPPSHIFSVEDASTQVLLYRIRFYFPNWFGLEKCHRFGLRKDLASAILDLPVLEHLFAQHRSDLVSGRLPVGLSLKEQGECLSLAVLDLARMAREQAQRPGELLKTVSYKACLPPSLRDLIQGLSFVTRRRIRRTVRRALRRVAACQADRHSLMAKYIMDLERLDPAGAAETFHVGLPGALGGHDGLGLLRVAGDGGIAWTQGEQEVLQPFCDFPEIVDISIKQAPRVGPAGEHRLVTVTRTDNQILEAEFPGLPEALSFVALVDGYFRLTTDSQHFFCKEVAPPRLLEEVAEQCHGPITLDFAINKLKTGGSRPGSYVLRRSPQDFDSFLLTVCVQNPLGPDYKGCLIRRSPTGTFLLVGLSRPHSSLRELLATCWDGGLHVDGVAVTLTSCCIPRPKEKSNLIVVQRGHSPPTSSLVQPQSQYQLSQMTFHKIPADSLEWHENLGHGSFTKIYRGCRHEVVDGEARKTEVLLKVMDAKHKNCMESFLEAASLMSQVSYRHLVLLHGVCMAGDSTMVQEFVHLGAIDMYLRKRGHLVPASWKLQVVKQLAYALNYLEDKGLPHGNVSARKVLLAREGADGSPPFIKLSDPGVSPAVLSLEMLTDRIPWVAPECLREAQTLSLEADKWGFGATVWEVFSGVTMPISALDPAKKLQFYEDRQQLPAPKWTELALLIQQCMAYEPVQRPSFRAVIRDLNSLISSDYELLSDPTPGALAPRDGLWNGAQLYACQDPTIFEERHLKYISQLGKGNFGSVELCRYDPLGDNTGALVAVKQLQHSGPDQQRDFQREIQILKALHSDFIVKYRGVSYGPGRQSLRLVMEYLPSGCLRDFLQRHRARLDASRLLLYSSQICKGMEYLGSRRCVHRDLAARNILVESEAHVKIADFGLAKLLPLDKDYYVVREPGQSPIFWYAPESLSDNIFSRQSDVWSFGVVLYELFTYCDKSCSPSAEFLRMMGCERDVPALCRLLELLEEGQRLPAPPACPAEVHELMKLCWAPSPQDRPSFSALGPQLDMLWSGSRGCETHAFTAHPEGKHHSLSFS
pIC50: −log10 of the molar value.
measureName: pIC50

Please report the recorded pIC50 for CC(=O)c1cc2c(=O)c3c(C(=O)O)c(O)c(O)cc3oc2c(C(C)=O)c1-c1coc2cc(O)c(O)c(C(=O)O)c2c1=O [SM-345431, Vinaxanthone] .
< 5.00

* * *

target: UniProtKB P04150; test: Pharmacological profile: receptor binding assay
Sequence (P04150 whole entry): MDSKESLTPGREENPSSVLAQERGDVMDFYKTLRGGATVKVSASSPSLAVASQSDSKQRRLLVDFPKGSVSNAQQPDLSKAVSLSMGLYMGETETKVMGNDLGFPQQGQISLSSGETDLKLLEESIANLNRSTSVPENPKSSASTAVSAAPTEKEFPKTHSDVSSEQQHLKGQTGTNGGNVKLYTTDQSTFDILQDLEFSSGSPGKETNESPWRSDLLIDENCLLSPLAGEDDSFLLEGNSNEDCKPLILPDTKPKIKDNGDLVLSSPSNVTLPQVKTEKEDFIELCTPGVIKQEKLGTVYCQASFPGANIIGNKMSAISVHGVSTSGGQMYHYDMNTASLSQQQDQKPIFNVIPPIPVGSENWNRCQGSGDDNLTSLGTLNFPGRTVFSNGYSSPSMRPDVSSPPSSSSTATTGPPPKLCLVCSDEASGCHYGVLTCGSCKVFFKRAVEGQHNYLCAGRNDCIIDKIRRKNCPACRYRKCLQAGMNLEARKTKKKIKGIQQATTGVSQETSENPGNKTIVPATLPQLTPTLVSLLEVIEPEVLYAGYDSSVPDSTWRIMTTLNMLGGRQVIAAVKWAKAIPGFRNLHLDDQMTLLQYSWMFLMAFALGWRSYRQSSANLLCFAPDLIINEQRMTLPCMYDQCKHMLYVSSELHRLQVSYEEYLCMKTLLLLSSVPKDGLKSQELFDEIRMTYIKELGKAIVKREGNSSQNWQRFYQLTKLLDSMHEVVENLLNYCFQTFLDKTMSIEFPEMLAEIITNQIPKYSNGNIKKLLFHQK
measureName: IC50

Please report the recorded IC50 for `CC(=O)c1cc2c(=O)c3c(C(=O)O)c(O)c(O)cc3oc2c(C(C)=O)c1-c1coc2cc(O)c(O)c(C(=O)O)c2c1=O` .
> 10 µM

* * *

target: Chemokine CCR2B (Homo sapiens, UniProt P41597)
Sequence (P41597 1-360 isoform P41597-2): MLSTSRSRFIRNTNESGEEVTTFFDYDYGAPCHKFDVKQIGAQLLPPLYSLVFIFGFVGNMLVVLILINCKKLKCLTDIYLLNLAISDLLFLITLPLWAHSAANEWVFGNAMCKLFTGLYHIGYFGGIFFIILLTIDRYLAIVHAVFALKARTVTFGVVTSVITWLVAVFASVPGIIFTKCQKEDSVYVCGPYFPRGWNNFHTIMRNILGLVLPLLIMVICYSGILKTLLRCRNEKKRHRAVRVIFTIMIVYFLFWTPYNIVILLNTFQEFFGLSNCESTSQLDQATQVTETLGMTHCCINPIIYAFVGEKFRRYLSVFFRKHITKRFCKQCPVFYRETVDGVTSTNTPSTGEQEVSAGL
pIC50: −log10 of the molar value.
measureName: pIC50

Item CC(=O)c1cc2c(=O)c3c(C(=O)O)c(O)c(O)cc3oc2c(C(C)=O)c1-c1coc2cc(O)c(O)c(C(=O)O)c2c1=O [SM-345431, Vinaxanthone] with Chemokine CCR2B (Homo sapiens, UniProt P41597) - pIC50?
< 5.00

* * *

target: Fes (Homo sapiens)
Sequence (P07332 whole entry, species assumed): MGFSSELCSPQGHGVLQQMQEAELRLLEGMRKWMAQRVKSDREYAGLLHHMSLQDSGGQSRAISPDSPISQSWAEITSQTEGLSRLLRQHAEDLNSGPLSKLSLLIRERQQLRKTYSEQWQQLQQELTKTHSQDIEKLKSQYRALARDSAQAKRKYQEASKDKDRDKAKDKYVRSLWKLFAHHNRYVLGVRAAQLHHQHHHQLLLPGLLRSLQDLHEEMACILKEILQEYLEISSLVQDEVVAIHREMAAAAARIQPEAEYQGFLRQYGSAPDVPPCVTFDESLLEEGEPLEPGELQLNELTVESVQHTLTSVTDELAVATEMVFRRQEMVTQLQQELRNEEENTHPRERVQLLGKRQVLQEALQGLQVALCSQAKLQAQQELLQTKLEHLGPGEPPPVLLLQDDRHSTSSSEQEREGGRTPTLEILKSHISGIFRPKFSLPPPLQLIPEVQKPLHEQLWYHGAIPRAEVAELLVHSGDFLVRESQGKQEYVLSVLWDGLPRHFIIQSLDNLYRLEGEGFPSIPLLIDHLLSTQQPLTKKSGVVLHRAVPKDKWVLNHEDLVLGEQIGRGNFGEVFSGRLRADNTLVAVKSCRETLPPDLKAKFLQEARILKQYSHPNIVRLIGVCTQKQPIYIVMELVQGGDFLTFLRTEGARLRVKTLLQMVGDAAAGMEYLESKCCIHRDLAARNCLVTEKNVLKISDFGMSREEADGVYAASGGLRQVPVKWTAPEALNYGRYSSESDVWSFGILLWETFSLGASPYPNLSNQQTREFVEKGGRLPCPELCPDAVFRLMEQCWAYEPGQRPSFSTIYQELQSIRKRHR
pIC50: −log10 of the molar value.
measureName: pIC50

Please report the recorded pIC50 for CC(=O)c1cc2c(=O)c3c(C(=O)O)c(O)c(O)cc3oc2c(C(C)=O)c1-c1coc2cc(O)c(O)c(C(=O)O)c2c1=O [SM-345431, Vinaxanthone] .
< 5.00
